Origin of values: PubChem BioAssay AID1159580

Experiment: chemical genetic growth profiling, strain panel (AID 1159580);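 further: tested at 20 µM; growth read once vehicle control cultures reached saturation at 30 °C; 1 = growth at the plate median or of vehicle wells; lower values mean less growth of the strain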
Conditions: S. cerevisiae deletion strains, growth OD, locus YOR083W, strain WHI5 (second series), hits give low values
About 2,000 (36%) of roughly 5,500 compounds were called active. Inconclusive results (about 18%) are left out. The list shows a part of the results.
Metric Name: normalized growth

CSC(=N)N	1.01
CCN(CC)C(=S)SSC(=S)N(CC)CC	0.0704
Cc1nc(N=Nc2ccc(C(=O)O)cc2)c(COP(=O)(O)O)c(C=O)c1O	1.03
CN(C)CCCCSC(=N)N	1.01
N#C/C(=C\c1ccc(O)c(O)c1)C(=O)Nc1ccccc1	1.02
CCOC(=O)c1ncn2c1CN(C)C(=O)c1cc(F)ccc1-2	1.03
N=c1nc(N2CCCCC2)cc(N)n1O	1.01

###

Experiment: chemical genetic growth profiling, strain panel (AID 1159580);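 further: tested at 20 µM; growth read once vehicle control cultures reached saturation at 30 °C; 1 = growth at the plate median or of vehicle wells; lower values mean less growth of the strain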
Details: S. cerevisiae deletion strains, growth OD, locus YBR279W, strain paf1, hits give low values
Among all 5,500 compounds or so, about 2,000 (36%) were called active. Not shown: some 18% with an inconclusive outcome. Some of the results follow.
Metric Name: normalized growth

COc1ccc(C(=O)c2ccccc2)c(O)c1	0.854
COc1c(O)cc2oc3cc(O)c(CC=C(C)C)c(O)c3c(=O)c2c1CC=C(C)C	0.968
CCC1(c2ccc(N)cc2)CCC(=O)NC1=O (stereo not given)	0.988
COC(=O)C1[C@H]2C[C@H]3c4[nH]c5ccccc5c4CCN3C[C@@H]2CC[C@@H]1O (stereo not given in full)	0.962
COc1cc(O)c(C(=O)c2ccccc2)cc1O	0.988
COC(=O)[C@@H]1C(O)CC[C@H]2CN3CCc4c([nH]c5ccccc45)[C@@H]3C[C@@H]21 (stereo not given in full)	1.02
COc1ccc(C(=O)c2ccccc2O)c(O)c1	0.902
CC(=O)O[C@]1(C(C)=O)CCC2C3C[C@H](C)C4=CC(=O)CC[C@]4(C)C3CC[C@@]21C (stereo not given in full)	0.97
CCC1(C)CC(=O)NC1=O (stereo not given)	0.973
N=c1nc(N2CCCCC2)cc(N)n1O	0.992
O=C(Cc1ccccc1)NO	0.976
COc1ccc(-c2cc(=O)c3c(O)cc(OC)c(OC)c3o2)c(OC)c1	1.01
CCCCCC(=O)O[C@]1(C(C)=O)CCC2C3CCC4=CC(=O)CC[C@]4(C)C3CC[C@@]21C (stereo not given in full)	1
O=C(O)C1CC([C@@H]2CCCCN2)CN2CCCCC12 (stereo not given in full)	0.995
CCC1(c2ccccc2)C(=O)NCNC1=O	1.02
CN=C(NC#N)NCCSCc1nc[nH]c1C	0.996
COc1ccc2c(c1)[C@@]1(C)CCC(=O)C[C@H]1CC2	0.98
S=C=NCc1ccccc1	0.0918
O=C(O)COc1cc(Cl)c(Cl)cc1Cl	1
COc1ccc2c(c1)C1(C)CCC(=O)CC1CC2 (stereo not given)	1
CCCCOc1ccc(CC(=O)NO)cc1	1
CCOC(=O)c1ncn2c1CN(C)C(=O)c1cc(F)ccc1-2	1.01
COc1cc(O)c2c(=O)cc(C)oc2c1CC=C(C)C	0.991
C=CC1=C(C(=O)O)N2C(=O)[C@@H](NC(=O)/C(=N/O)c3csc(N)n3)[C@H]2SC1	1.01
CC[C@@H](CO)NCCN[C@@H](CC)CO	1.02
